measurement-target: Rhesus PDE2A3 (Macaca mulatta, UniProt B3VTJ2)
Construct: made in house; host or cells: AD293 cells, transient transfection; supernatant of sonicated lysate
Sequence (B3VTJ2 1-941): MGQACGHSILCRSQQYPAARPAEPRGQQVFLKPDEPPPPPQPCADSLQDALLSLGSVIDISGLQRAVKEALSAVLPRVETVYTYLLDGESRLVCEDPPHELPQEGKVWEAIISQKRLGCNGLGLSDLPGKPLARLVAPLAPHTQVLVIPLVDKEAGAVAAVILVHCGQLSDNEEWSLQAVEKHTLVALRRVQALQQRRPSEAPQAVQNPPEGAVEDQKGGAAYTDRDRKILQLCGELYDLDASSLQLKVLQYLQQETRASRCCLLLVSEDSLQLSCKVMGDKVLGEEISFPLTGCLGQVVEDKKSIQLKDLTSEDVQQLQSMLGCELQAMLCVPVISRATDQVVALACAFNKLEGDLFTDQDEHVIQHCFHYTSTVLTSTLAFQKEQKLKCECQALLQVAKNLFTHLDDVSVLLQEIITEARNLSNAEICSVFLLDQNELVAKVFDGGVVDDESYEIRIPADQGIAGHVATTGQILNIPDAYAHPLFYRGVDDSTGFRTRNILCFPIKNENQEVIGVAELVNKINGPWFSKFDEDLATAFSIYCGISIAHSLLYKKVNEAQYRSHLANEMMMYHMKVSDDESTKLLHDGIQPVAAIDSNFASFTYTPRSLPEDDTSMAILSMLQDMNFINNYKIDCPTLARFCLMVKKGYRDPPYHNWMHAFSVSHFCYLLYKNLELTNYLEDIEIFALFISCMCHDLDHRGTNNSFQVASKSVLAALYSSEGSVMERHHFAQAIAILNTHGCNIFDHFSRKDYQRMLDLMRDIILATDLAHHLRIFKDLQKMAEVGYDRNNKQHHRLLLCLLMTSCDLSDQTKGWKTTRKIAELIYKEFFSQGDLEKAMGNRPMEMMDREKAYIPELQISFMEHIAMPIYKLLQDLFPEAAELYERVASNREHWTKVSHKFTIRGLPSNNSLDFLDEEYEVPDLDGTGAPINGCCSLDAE
assay-details: PDE2 fluorescence polarization (IMAP FP) inhibition assay, rhesus PDE2A3
Type: biochemical, rhesus macaque
measurement-context: Lab B; read-out: Rhesus PDE2 Ki (nM) Lab B
measured-endpoint: Ki (nM)

Cc1nc2c(c(CO)nn2C(C)c2ccc(OC(F)(F)F)c(F)c2)c(=O)[nH]1 (single isomer, unassigned) [Example 11]	2

1: Cc1nc2c(c(C(F)F)nn2C(C)c2ccc(C(F)(F)F)cc2)c(=O)[nH]1 (single isomer, unassigned) [Example 176]
2: Cc1nc2c(c(CC(F)(F)F)nn2C(c2ccc(C(F)(F)F)cc2)C(C)(C)C)c(=O)[nH]1 (single isomer, unassigned) [Example 56]
Qu. From the items above, decide which of 1 and 2 has the lower Ki reading. Your answer should be the label of the entry you select.
Ans. 1
